Each record here notes measured apparent KD of K4 kissing-loop reporter.
Test system: K4 kissing-loop RNA reporter;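 further: bound reporter read as fluorescence of individual clusters on recovered sequencing chips by microscopy, with normalized cluster intensities fitted with a binding model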
Test: apparent KD of K4 kissing-loop reporter; higher = weaker reporter binding
Conditions: Eterna round: R107; input ligand: tryptophan 2.4 mM
Could you give me the number in nM? Just the number is fine.

## Task Recorded apparent KD of K4 kissing-loop reporter for GCAGUGAUGUUGCUGAUGUGCAGUGGUAGUCGAGGACCGGUACGGCCGCCACUCGGUGAGAAUUUGUUAAUACAUCGAUAAGUGA [XVI] , please?
## Result 707

## Task Recorded apparent KD of K4 kissing-loop reporter for GCGCGUCAUGUCAGCGGUGACUAUGUCGAUACCAGCGCCGCAAGGCGCCCUUGGCAGCGACGCGCUGGAGUGAUGUUCCGACGGC [#2 Exclusion - Theophylline A Attempt #9 (HarryS)] , please?
## Result 129

## Task Recorded apparent KD of K4 kissing-loop reporter for AAUAAGGUCGCCGAUACCAGCGCGGGCAGAGCAAAGCUCUGCCCGGUAGUGAUGUUACCGCGCCCUUGGCAGCGGUGGCACGACC [Omei KL Theo B SS C v6] , please?
## Result 63.3

## Task Recorded apparent KD of K4 kissing-loop reporter for AAGUACACGAUAGUGUACACCUAGUGAUGUUAGGAUAUGCAGAUAUGCAGAAGGAACGAGUCAUCUGACAAUAGUCGGAUGACAA [FmnAX 8 #OpenEnded #K4Early] , please?
## Result 82.4

## Task Recorded apparent KD of K4 kissing-loop reporter for AUUUUUUUAUCAGGAUAUUAGUGUUGGUUUGUUUUGUUAGUGAUGUUGAUAUUUGUUUUAUGUAUUUAAGAAGGGAUUGUGAUGU [huupullin] , please?
## Result 264

## Task Recorded apparent KD of K4 kissing-loop reporter for UGACUGGAUGGAAGGAGCGCUAAACUCCUAGUGAUGUUAGGGACACGAGACAAAGUCUUGAAGCAGGUAGGUCGCCAUCUAGUCU [FiskerMod 9 - Jieux - Same State - Arginine B] , please?
## Result 238

---

Each record here notes measured apparent KD of MS2 coat protein.
Tested on: MS2 coat protein
Assay: apparent KD of MS2 coat protein; higher = weaker reporter binding
Details: Eterna round: R107; input ligand: theophylline 20 uM
Could you give me the number in nM? Just the number is fine.

A selection of reference data follows.
itemSequence: AGUCACUCGAGGUGAUCUGACGAGUGGCAACGAGGACCGGUACGGCCGCCACUCGAAUAAACAUGAGGAUCACCCAUGUACAAAU [T''-M'-T'-T-MS2 - Design 11]
unitsText: nM
apparent KD of MS2 coat protein: 216
--
itemSequence: GUAUAUAUGCGAAGGAGCGGGAAAUAUAUAUAUAUAAUCCUAACAUGAGGAUCACCCAUGUCCCAGGUAGGUCGCGCAUAUAUAU [12.B]
unitsText: nM
apparent KD of MS2 coat protein: 86.9
--
itemSequence: UCUUGGUCCGCAAGGACCGUGAGUUGCGAUACCAGCACGGUAACGUGCCCUUGGCAGCGCACAUGAGGAUCACCCAUGUGGUGUU [#1 Exclusion - Theophylline A Attempt #15 (HarryS)]
unitsText: nM
apparent KD of MS2 coat protein: 520
--
itemSequence: ACCUGUACGAAAAGUGCAGGACACGGAAUACGAGGACCGGUACGGCCGCCACUCGGAACCUGAGGAUCACCCUGGUAAAACCGUG [TrypAS 13 #AlternativeMS2 #Zipper #StaticStem]
unitsText: nM
apparent KD of MS2 coat protein: 22.6

## Task Recorded apparent KD of MS2 coat protein for GGUACAUGAGGAUCACCCAUGUAUUAGUGCCGAGGACCGGUACGGCCGCCACUCGCUUCACAUGAGGAUCACCCAUGUGUCACAG [SSTA DOUBLE!!! :-D #13] , please?
## Result 38.4

## Task Recorded apparent KD of MS2 coat protein for GUCGGUACGUCGGCAAAGCCGAUGUGCCAGCGAGGACCGGUACGGCCGCCACUCGUACAUGAGGAUCACCCAUGUCCGGUCCGGC [Omei Trp SS A C v2] , please?
## Result 84.4

## Task Recorded apparent KD of MS2 coat protein for UGAGAUCCUCAUGAUACCAGUGUACUACAUGAGGAUCACCCAUGUAGCAACAUCUGUAGACACCCUUGGCAGCAUGAGACCACGU [Theo B SS t5] , please?
## Result 35.2

## Task Recorded apparent KD of MS2 coat protein for ACGACGCAUAGUGAUACCAGUAGAACAUGAGGAUCACCCAUGUCUGUUAUGUACAAAUACUGCCCUUGGCAGCACUAUGCGUCAG [SSTheo B #5] , please?
## Result 12.1

## Task Recorded apparent KD of MS2 coat protein for CGUAUUGUAACUGAUACCAGUGUACUGACAUGAGGAUCACCCAUGUUGGGUUUUGUUGUACACCCUUGGCAGCAGAAUCAAUACG [AstrosExyTheB#5] , please?
## Result 74.2

## Task Recorded apparent KD of MS2 coat protein for GGAUUCGGCACGGCCGCCACUGCGGUGGUGUGACAUGAGGAUCACCCAUGUUGUCAUGCGGCCCUUAGGACCGGGUGGCGUUUCC [#1 Exclusion - Tryptophan B Attempt #21 (HarryS)] , please?
## Result 76.2
